Recorded values, source PubChem BioAssay AID1159580.

Reported normalized growth values for the following compounds.
Experiment: chemical genetic growth profiling, strain panel (AID 1159580);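 also: tested at 20 µM; growth read once vehicle control cultures reached saturation at 30 °C; 1 = growth at the plate median or of vehicle wells; lower values mean less growth of the strain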
Conditions: S. cerevisiae deletion strains, growth OD, locus YOR316C, strain cot1, hits give low values
Among all 5,500 compounds or so, about 2,000 (36%) were called active. Not shown: some 18% with an inconclusive outcome. This is one part of the list.
Field format: numeric only.

Please review the entries below; each comes with its answer.
{"Compound": "NCC(O)CC(=O)O (stereo not given)", "Val": 1.01}
{"Compound": "CC1(C)C(=O)CC[C@@]2(C)C1C[C@@H](O)[C@@]1(C)C3=CC(=O)O[C@@H](c4ccoc4)[C@]3(C)CCC21 (stereo not given in full)", "Val": 1.01}
{"Compound": "CC(C)(C)NCC(O)COc1cccc2c1C[C@H](O)[C@H](O)C2 (stereo not given in full)", "Val": 0.985}
{"Compound": "C[C@@H]1CCC2[C@](C)(CO)[C@@H](O)CC[C@]2(C)[C@@]12CC[C@@](CO)(CCO)O2 (stereo not given in full)", "Val": 0.975}
{"Compound": "O=C(CCCN1CCC(O)(c2ccc(Cl)cc2)CC1)c1ccc(F)cc1", "Val": 1.02}

normalized growth for CC1(C)O[C@@H]2CC3C4C[C@H](F)C5=CC(=O)CC[C@]5(C)C4[C@@H](O)C[C@]3(C)[C@]2(C(=O)CO)O1 (stereo not given in full) is 1.01

normalized growth for COP(N)(=O)SC (stereo not given) is 1.01

normalized growth for CC(=O)O[C@@H]1c2c(ccc3ccc(=O)oc23)OC(C)(C)[C@@H]1OC(=O)CC(C)C is 1.01

normalized growth for CNC[C@H](O)c1cccc(O)c1 is 1.02

normalized growth for C[C@@H]1CC[C@@]23CCC4(C)[C@@](C=CC5[C@@]6(C)CC[C@H](O)C(C)(C)C6CC[C@]54C)(OC2=O)C3[C@H]1C (stereo not given in full) is 1.03

---

Assay: chemical genetic growth profiling, strain panel (AID 1159580)
Conditions: S. cerevisiae deletion strains, growth OD, locus YLR320W, strain mms22, hits give low values
About 2,000 (36%) of roughly 5,500 compounds were called active. Roughly 18% stayed inconclusive and do not appear here. The list shows a part of the results.
Reported normalized growth values for the following molecules.
Field format: numeric only.

Please review the entries below; each comes with its answer.
{"Molecule": "O=C(O)C1=CC(=C(c2ccc(O)c(C(=O)O)c2)c2ccc(O)c(C(=O)O)c2)C=CC1=O", "normalized growth": 0.985}
{"Molecule": "CC1=CC(=O)C(C(C)C)=CC1=O", "normalized growth": 0.721}

normalized growth for C=CCSCC=C is 0.995

normalized growth for C=CCSSSCC=C is 0.967

normalized growth for CC1=C2C(O)C(=O)OC3CC4C(C)(C)C(=O)C=C[C@]4(C)C(CC1)[C@]23C (stereo partly specified) is 1.01

normalized growth for CC(C)(C)NCC(O)COc1cccc2c1C[C@H](O)[C@H](O)C2 (stereo partly specified) is 1.02

normalized growth for NCCCC(O)(P(=O)(O)O)P(=O)(O)O is 0.987

normalized growth for CCCCC(=O)O[C@]1(C(=O)CO)[C@@H](C)CC2C3CCC4=CC(=O)C=C[C@]4(C)[C@@]3(F)C(O)C[C@@]21C (stereo partly specified) is 0.996

normalized growth for Oc1ccc([C@H]2Oc3cc(O)cc(O)c3C[C@H]2O)cc1 is 0.982

normalized growth for CCC(=O)OCC(=O)C1(OC(=O)CC)C(C)CC2C3C(Cl)CC4=CC(=O)C=CC4(C)C3C(O)CC21C (stereo unspecified) is 1.02

normalized growth for Nc1nc(/C(=C/CC(=O)O)C(=O)N[C@@H]2C(=O)N3C(C(=O)O)=CCS[C@H]23)cs1 is 1.01

---

Reported normalized growth values for the following compounds.
Experiment: chemical genetic growth profiling, strain panel (AID 1159580);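 also: tested at 20 µM; growth read once vehicle control cultures reached saturation at 30 °C; 1 = growth at the plate median or of vehicle wells; lower values mean less growth of the strain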
Details: S. cerevisiae deletion strains, growth OD, locus YNL197C, strain WHI3, hits give low values
In all, about 5,500 compounds went through this assay and about 2,000 (36%) were called active. Roughly 18% stayed inconclusive and do not appear here. Some of the results follow.

{"Structure Smiles String": "NCCS(=O)O", "normalized growth": "1 (inactive)"}

normalized growth for O=C(CCCN1CCC2(CC1)C(=O)NCN2c1ccccc1)c1ccc(F)cc1 is 1.01 (inactive)

normalized growth for O=C(CCCN1CCC2(CC1)C(=O)N(CCc1ccc(N=C=S)cc1)CN2c1ccccc1)c1ccc(F)cc1 is 1.02 (inactive)

normalized growth for CC(=O)O[C@]1(C(C)=O)CC[C@H]2[C@@H]3C=C(Cl)C4=CC(=O)[C@@H]5C[C@@H]5[C@]4(C)[C@H]3CC[C@@]21C is 0.966 (inactive)

normalized growth for CC(C)c1cccc(C(C)C)c1O is 1 (inactive)

normalized growth for CCNC(=O)N1CCN(CCCC(c2ccc(F)cc2)c2ccc(F)cc2)CC1 is 1.02 (inactive)

---

Assay: chemical genetic growth profiling, strain panel (AID 1159580);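 also: tested at 20 µM; growth read once vehicle control cultures reached saturation at 30 °C; 1 = growth at the plate median or of vehicle wells; lower values mean less growth of the strain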
Conditions: S. cerevisiae deletion strains, growth OD, locus YLR113W, strain HOG1
The campaign covered roughly 5,500 compounds. About 2,000 (36%) were called active. Roughly 18% stayed inconclusive and do not appear here. Rule as the data show it: active = normalized growth mostly below about 0.91 (no sharp cut-off); inconclusive = no clear call, values can overlap the other calls; inactive = mostly above about 0.92. The list shows a part of the results.
Result category, one only: active, inactive

Answered examples (5):
{"Compound": "CC1(C)[C@@H]2CC[C@@]1(C)C(=O)C2", "Class Label": "inactive"}
{"Compound": "CCCCCC(O)C1C(=O)OC(C)C(O)/C=C/C=C/C=C/C=C/C=C(\\C)C(O)CC(O)CC(O)CC(O)CC(O)CC(O)CC1O (stereo unspecified)", "Class Label": "inactive"}
{"Compound": "COc1c(O)cc2c(c1O)[C@H]1O[C@H](CO)[C@@H](O)[C@H](O)[C@@H]1OC2=O", "Class Label": "inactive"}
{"Compound": "COC1=CC(=O)C=C(OC)C1=O", "Class Label": "inactive"}
{"Compound": "Clc1cccc(Cl)c1C1CC(c2ccccc2)=Nc2ccccc2S1 (stereo unspecified)", "Class Label": "inactive"}

How did this test come out for N#C/C(N=Cc1cc(Cl)cc(Cl)c1O)=C(\C#N)N=Cc1cc(Cl)cc(Cl)c1O ? active

---

Test: chemical genetic growth profiling, strain panel (AID 1159580);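 also: tested at 20 µM; growth read once vehicle control cultures reached saturation at 30 °C; 1 = growth at the plate median or of vehicle wells; lower values mean less growth of the strain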
Conditions: S. cerevisiae deletion strains, growth OD, locus YFR010W, strain ubp6, hits give low values
Hit rate of the full screen: of about 5,500 compounds, about 2,000 (36%) were called active. About 18% were inconclusive and are not listed. This is one part of the list.
Quantity Measured: normalized growth

Please review the entries below; each comes with its answer.
{"Compound": "NS(=O)(=O)c1cc2c(cc1C(F)(F)F)NC(Cc1ccccc1)NS2(=O)=O (stereo unspecified)", "Quantity Measured": "normalized growth", "Val": "0.971 (inactive)"}
{"Compound": "C/C=C/CC(C)C(O)C1C(=O)NC(CC)C(=O)N(C)CC(=O)N(C)C(CC(C)C)C(=O)NC(C(C)C)C(=O)N(C)C(CC(C)C)C(=O)NC(C)C(=O)NC(C)C(=O)N(C)C(CC(C)C)C(=O)N(C)C(CC(C)C)C(=O)N(C)C(C(C)C)C(=O)N1C (stereo unspecified)", "Quantity Measured": "normalized growth", "Val": "1 (inactive)"}
{"Compound": "CC1(C)O[C@@H]2CC3C4C[C@H](F)C5=CC(=O)CC[C@]5(C)C4[C@@H](O)C[C@]3(C)[C@]2(C(=O)CO)O1 (stereo partly specified)", "Quantity Measured": "normalized growth", "Val": "1.01 (inactive)"}
{"Compound": "Cc1c(OCC(F)(F)F)ccnc1CS(=O)c1nc2ccccc2[nH]1 (stereo unspecified)", "Quantity Measured": "normalized growth", "Val": "1.02 (inactive)"}
{"Compound": "CC12CCC(=O)C=C1CCc1ccccc12 (stereo unspecified)", "Quantity Measured": "normalized growth", "Val": "0.99 (inactive)"}

normalized growth for CCCc1nn(C)c2c(=O)[nH]c(-c3cc(S(=O)(=O)N4CCN(C)CC4)ccc3OCC)nc12 is 0.98 (inactive)

normalized growth for CSc1nc(NC(C)C)nc(NC(C)C)n1 is 0.978 (inactive)

normalized growth for CO[C@H]1[C@@H](O)[C@@H](C)O[C@H](O[C@H]2CCC3(C)C4CCC5(C)[C@@H](C6=CC(=O)OC6)CC[C@]5(O)[C@@H]4CC[C@]3(O)C2)[C@@H]1O (stereo partly specified) is 1.04 (inactive)

normalized growth for CC(=O)N1CCN(c2ccc(OCC3CO[C@](Cn4ccnc4)(c4ccc(Cl)cc4Cl)O3)cc2)CC1 (stereo partly specified) is 0.302 (active)

normalized growth for COc1cccc2c1CCC1=CC(=O)CC[C@@]12C is 1.01 (inactive)

normalized growth for COc1nc(NC(C)C)nc(NC(C)C)n1 is 1.03 (inactive)

normalized growth for COC1=CC(C)[C@@H]2C[C@H]3OC(=O)C[C@H]4C(C)=C(OC)C(=O)C([C@@]34C)[C@@]2(C)C1=O (stereo partly specified) is 0.98 (inactive)

normalized growth for CC1=C2C(O)C(=O)OC3CC4C(C)(C)C(=O)C=C[C@]4(C)C(CC1)[C@]23C (stereo partly specified) is 1.01 (inactive)

normalized growth for COC(=O)C[C@H]1C(C)(C)[C@@H](O)[C@@H]2CC3=C4CC(O)O[C@@H](c5ccoc5)[C@]4(C)CCC3[C@@]1(C)C2=O (stereo partly specified) is 1.05 (inactive)

normalized growth for C[C@H]1[C@H](C)CC[C@]2(C(=O)O)CC[C@]3(C)C(=CCC4[C@@]5(C)C[C@@H](O)[C@H](O)[C@@](C)(CO)C5[C@H](O)C[C@]43C)[C@H]12 (stereo partly specified) is 0.938 (inactive)

normalized growth for COC1CC(O[C@H]2CC[C@]3(C=O)C4CC[C@]5(C)C(C6=CC(=O)OC6)CC[C@]5(O)C4CC[C@]3(O)C2)OC(C)C1O (stereo partly specified) is 1 (inactive)
